Reference source: paper PMC9482650

Biological target: T1, SNTB1, Q13884
T1 sequence (Q13884 107-205, limits assumed, looked up): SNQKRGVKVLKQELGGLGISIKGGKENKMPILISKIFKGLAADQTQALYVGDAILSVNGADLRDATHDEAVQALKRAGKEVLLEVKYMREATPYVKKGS
Assay: holdup assay
Set-up: key: below the threshold = too weak to quantify, mostly under pKd 3.1 to 4
Details: plain residues with an end cap or a label only (N-terminal biotin on a linker: ttds)
endpoint.name: pKd
The answer should be a number; do not append a unit.

KLVIKTETTV [RASSF6, Q6ZTQ3]; 4.14

Query: Need pKd of PPRQRSETQV [HPV82-E6, Q9IR59] , thanks.
Reply: 4.05
